SUBJECT_OF_TEST: intracellular GCN2 (phosphorylation of the GCN2 substrate eIF2α) (Homo sapiens (Human), UniProt Q9P2K8)
Sequence (Q9P2K8 whole entry): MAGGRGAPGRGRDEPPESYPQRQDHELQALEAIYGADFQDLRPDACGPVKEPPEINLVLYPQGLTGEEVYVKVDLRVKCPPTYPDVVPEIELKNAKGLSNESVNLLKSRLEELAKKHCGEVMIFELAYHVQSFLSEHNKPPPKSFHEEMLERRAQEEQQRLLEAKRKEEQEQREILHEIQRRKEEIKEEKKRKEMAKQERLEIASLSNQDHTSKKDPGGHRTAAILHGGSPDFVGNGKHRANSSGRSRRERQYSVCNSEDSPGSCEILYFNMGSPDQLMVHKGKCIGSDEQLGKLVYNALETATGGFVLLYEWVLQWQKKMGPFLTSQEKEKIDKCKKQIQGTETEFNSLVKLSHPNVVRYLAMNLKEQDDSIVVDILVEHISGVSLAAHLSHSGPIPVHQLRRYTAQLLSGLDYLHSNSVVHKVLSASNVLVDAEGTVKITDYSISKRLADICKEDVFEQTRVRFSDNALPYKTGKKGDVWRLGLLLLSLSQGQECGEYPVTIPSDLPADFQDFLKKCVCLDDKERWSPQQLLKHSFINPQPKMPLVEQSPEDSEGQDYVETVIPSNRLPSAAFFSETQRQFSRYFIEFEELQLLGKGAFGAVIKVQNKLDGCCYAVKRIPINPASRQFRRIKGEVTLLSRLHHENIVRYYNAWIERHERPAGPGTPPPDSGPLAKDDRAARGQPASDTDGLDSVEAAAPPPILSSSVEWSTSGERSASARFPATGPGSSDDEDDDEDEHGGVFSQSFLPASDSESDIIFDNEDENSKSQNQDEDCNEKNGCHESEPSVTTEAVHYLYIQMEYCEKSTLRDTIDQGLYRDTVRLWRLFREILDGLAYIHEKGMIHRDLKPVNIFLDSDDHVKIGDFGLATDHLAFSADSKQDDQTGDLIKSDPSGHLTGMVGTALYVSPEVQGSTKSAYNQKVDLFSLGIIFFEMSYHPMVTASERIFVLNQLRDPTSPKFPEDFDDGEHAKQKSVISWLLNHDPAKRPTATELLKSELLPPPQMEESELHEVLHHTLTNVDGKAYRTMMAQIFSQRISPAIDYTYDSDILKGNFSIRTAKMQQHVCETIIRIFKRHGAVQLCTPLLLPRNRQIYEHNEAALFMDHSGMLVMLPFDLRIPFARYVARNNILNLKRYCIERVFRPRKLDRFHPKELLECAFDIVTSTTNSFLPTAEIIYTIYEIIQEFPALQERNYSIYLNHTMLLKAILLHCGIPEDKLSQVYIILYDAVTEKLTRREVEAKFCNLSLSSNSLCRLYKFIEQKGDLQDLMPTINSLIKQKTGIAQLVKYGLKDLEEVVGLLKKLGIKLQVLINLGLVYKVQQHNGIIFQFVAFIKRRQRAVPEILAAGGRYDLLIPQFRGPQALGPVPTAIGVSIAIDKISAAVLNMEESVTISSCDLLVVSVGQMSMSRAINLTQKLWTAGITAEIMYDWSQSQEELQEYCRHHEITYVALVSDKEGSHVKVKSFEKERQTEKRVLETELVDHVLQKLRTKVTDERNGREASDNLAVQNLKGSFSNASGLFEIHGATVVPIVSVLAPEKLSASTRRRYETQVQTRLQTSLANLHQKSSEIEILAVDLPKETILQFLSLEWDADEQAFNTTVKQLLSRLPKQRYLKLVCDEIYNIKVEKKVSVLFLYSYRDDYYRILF
MEASUREMENT_DESCRIPTION: GCN2 Cellular Inhibition Assay (AlphaScreen SureFire P-eIF2α Ser51, borrelidin-treated U2OS cells)
Assay type: cell-based
ASSAY_CONTEXT: 10 μM borrelidin, 1 h, phosphorylated eIF2α Ser51, read-out: GCN2 Biomarker (IC50)
MEASURED_METRIC: IC50

Solved entries:
- COMPOUND: "C[C@@H]1C[C@@H](c2cn[nH]c2)CN(c2nccc(-c3cnc4ccc(C5CC5)cn34)n2)C1"
  IC50: "< 500 nM"
- COMPOUND: "FC(F)(F)c1ccc2ncc(-c3ccnc(N4CCOC(c5cn[nH]c5)C4)n3)n2c1 (centres unmarked) [I-44]"
  IC50: "< 500 nM"
- COMPOUND: "NS(=O)(=O)C1CCCN(c2ccnc(-c3cnc4ccc(C(F)(F)F)cn34)n2)C1 (centres unmarked)"
  IC50: "> 5000 nM"
- COMPOUND: "Cc1n[nH]nc1[C@@H]1C[C@H](C)CN(c2ccnc(-c3cnc4ccc(C(F)(F)F)cn34)n2)C1"
  IC50: "< 500 nM"

What the record says about Clc1ccc2ncc(-c3nccc(N4CCCC(c5c[nH]cn5)C4)n3)n2c1 (centres unmarked) : IC50 is 500 to 5000 nM

IC50 for `NC(=O)[C@H]1C[C@H](O)CN(c2nccc(-c3cnc4ccc(Cl)cn34)n2)C1` is < 500 nM

So for `NC(=O)[C@@H]1CCCN(c2ncc(F)c(-c3cnc4ccc(C(F)(F)F)cn34)n2)C1` , the logged IC50 turned out to be < 500 nM

Entry `Cc1[nH]ncc1[C@@H]1CN(c2ccnc(-c3cnc4cc(F)c(Cl)cn34)n2)C[C@@H](C)O1` ; IC50 = 500 to 5000 nM
